System: Aβ42 (Homo sapiens, UniProt P05067)
Sequence (P05067 672-713): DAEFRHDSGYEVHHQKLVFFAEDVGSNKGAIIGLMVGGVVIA
Experiment: Th-T (thioflavin-T) assay of Aβ42 aggregation
Format: biochemical
Condition: reading M120; compound at 10 (head suffix _10)
I would appreciate it if you labelled entries rule met when Th-T fluorescence, mean of three wells (Fig. 7a) is 2 or higher, otherwise rule not met.

Molecule: C=C1CC[C@@H]2[C@](C)(CC[C@H]3O[C@H](C=C(C)C)C[C@@]23C)[C@@H]1Cc1c(OC)oc(CO)c(C(=O)OC)c1=O
Classification: rule not met
//
Molecule: C=C1CCC2C(C)(CCC=C(C)C)C(O)CCC2(C)C1Cc1c(OC)oc(CO)c(C(=O)OC)c1=O (centres unmarked)
Classification: rule not met
//
Molecule: C=C1CC[C@@H]2[C@](C)(CC[C@H]3O[C@H](C=C(C)C)C[C@@]23C)[C@@H]1Cc1c(OC)oc(CO)c(C)c1=O
Classification: rule met
//
Molecule: C=C1CCC2C(C)(CCC=C(C)C)C(O)CCC2(C)C1Cc1c(OC)oc(CO)c(C)c1=O (centres unmarked)
Classification: rule met
//
Molecule: C=C1CCC2C(C)(CCC=C(C)C)C(O)CCC2(C)C1Cc1c(OC)oc(C)c(C(=O)OC)c1=O (centres unmarked)
Classification: rule met
